What normalized growth was measured for each of the following?
Experiment: chemical genetic growth profiling, strain panel (AID 1159580);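 also: tested at 20 µM; growth read once vehicle control cultures reached saturation at 30 °C; 1 = growth at the plate median or of vehicle wells; lower values mean less growth of the strain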
Conditions: S. cerevisiae deletion strains, growth OD, locus YPR141C, strain kar3, stronger effect = lower value
Among all 5,500 compounds or so, about 2,000 (36%) were called active. Another 18% or so got no clear call; they are omitted. Some of the results follow.
Answers are plain numbers.

Items follow; give normalized growth for each.
1. COc1cc(O)ccc1C(C)=O
2. CC(=O)CCCCn1c(=O)c2c(ncn2C)n(C)c1=O
3. COc1ccc([C@@H](C)C(=O)c2ccc(O)cc2O)cc1
4. Cn1c(=O)c2c(ncn2CCCl)n(C)c1=O
5. CNC(=O)Oc1cccc2c1OC(C)(C)C2

*A*
[0.976, 0.991, 0.98, 1.02, 0.973]

Parameter requested: normalized growth. Apply to each item below.
1. Cn1c(=O)[nH]c2ncn(C)c2c1=O
2. CC(C)[C@@H]1CC[C@@H](C)CC1=O
3. CCCC(=O)Nc1ccc(OCC(O)CNC(C)C)c(C(C)=O)c1 (configuration not stated)
4. CC(=O)OC[C@@]1(O)C[C@@]23CCC4c5ccoc5CC[C@]4(C)C2CC[C@@H]1C3 (some centres not stated)

*A*
1: 0.987; 2: 0.991; 3: 1.01; 4: 0.989

Would you mind giving normalized growth for every compound in the list below?
1. Cn1cnc2c1c(=O)[nH]c(=O)n2C
2. Cn1c(=O)[nH]c2nc[nH]c2c1=O
3. CC1=C(C(=O)O)N2C(=O)[C@@H](NC(=O)[C@@H](N)c3ccc(O)cc3)[C@H]2SC1

*A*
1. 1.01
2. 0.997
3. 0.958

---

Assay: chemical genetic growth profiling, strain panel (AID 1159580);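 also: tested at 20 µM; growth read once vehicle control cultures reached saturation at 30 °C; 1 = growth at the plate median or of vehicle wells; lower values mean less growth of the strain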
Settings: S. cerevisiae deletion strains, growth OD, locus YPL256C, strain CLN2, stronger effect = lower value
Out of some 5,500 compounds screened, about 2,000 (36%) were called active. Inconclusive results (about 18%) are left out. The list shows a part of the results.
Task for the reader: assign each of the following compounds its reported normalized growth.

COMPOUND: C[C@H]1C(=O)CCC2[C@]3(C)CC[C@@]4(C)C5CC(C)(C)CC[C@]5(C)CC[C@]4(C)C3CC[C@@]21C (stereo partly drawn)
OBSERVED RESULT: 1.05 (inactive)
//
COMPOUND: O=C(Nc1ccc(F)cc1F)c1cc(Cl)ccc1O
OBSERVED RESULT: 0.927 (inactive)

List the reported normalized growth of each compound below.
1. O=c1c(O)c(-c2ccccc2)oc2ccc3occc3c12
2. CC(C)N=C(N)N=C(N)Nc1ccc(Cl)cc1
3. O=c1c(O)c(-c2ccccc2)oc2cc(O)ccc12

*A*
1. 0.982 (inactive)
2. 1.04 (inactive)
3. 1.06 (inactive)

---

Assay: chemical genetic growth profiling, strain panel (AID 1159580);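 also: tested at 20 µM; growth read once vehicle control cultures reached saturation at 30 °C; 1 = growth at the plate median or of vehicle wells; lower values mean less growth of the strain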
Settings: S. cerevisiae deletion strains, growth OD, locus YDL101C, strain DUN1, stronger effect = lower value
Hit rate of the full screen: of about 5,500 compounds, about 2,000 (36%) were called active. Another 18% or so got no clear call; they are omitted. The list shows a part of the results.
REPORTED METRIC: normalized growth
One number for each entry.

Reference set, count: 5
COMPOUND: CCCc1ncc(C[n+]2ccccc2C)c(N)n1
REPORTED METRIC: normalized growth
OBSERVED RESULT: 1
--
COMPOUND: CCOC(=O)C(O)(c1ccc(NC(=O)c2ccc(Cl)c(Cl)c2)cc1)C(F)(F)F (stereo unspecified)
REPORTED METRIC: normalized growth
OBSERVED RESULT: 0.994
--
COMPOUND: O=C1C(NCc2ccccc2)=C(NCc2ccccc2)C(=O)c2ccccc21
REPORTED METRIC: normalized growth
OBSERVED RESULT: 0.916
--
COMPOUND: CNC(C)(C)Cc1ccccc1
REPORTED METRIC: normalized growth
OBSERVED RESULT: 1.01
--
COMPOUND: O=C1c2ccccc2C(=O)c2ccccc21
REPORTED METRIC: normalized growth
OBSERVED RESULT: 0.985

Provide reported normalized growth for each item, in the same order as listed.
1. O=C(/C=C/c1ccccc1)c1ccc(O[C@@H]2O[C@H](CO)[C@@H](O)[C@H](O)[C@H]2O)cc1O
2. O=C(/C=C/c1ccccc1)c1c(O)cc(O)cc1O
3. OC[C@H]1O[C@@H](Oc2ccc(O)cc2)[C@H](O)[C@@H](O)[C@@H]1O
4. O=C(/C=C/c1ccc(O)cc1)c1ccc(O)cc1O
5. O=C1C=C(O)c2ccccc2C1=O

*A*
1: 0.943; 2: 1.01; 3: 1.02; 4: 1; 5: 0.971

*Q* Supply recorded normalized growth for COc1ccc(/C=C/c2cc(O)cc(O[C@@H]3O[C@H](CO)[C@@H](O)[C@H](O)[C@H]3O)c2)cc1 here.
*A* 1
